method_notes: Liver microsomes metabolic stability assay, human
Type: in vitro ADME
protocol_conditions: human liver microsomes 0.5 mg/mL, 37° C., read-out: t1/2 Human
Label Yes when half-life at 2 μM is strictly below 1 h; at or above that, label No.

{"columns": ["compound_smiles", "class_label"],
 "data": [
  ["C[C@H](O)c1nnc(-c2cnn3ccc(N4CCC[C@@H]4c4cc(F)ccc4F)nc23)[nH]1", "No"],
  ["Fc1ccc(F)c([C@H]2CCCN2c2ccn3ncc(-c4nc5cc6c(cc5[nH]4)OCCO6)c3n2)c1", "Yes"],
  ["COCCOc1cc2[nH]c(-c3cnn4ccc(N5CCC[C@@H]5c5cc(F)ccc5F)nc34)nc2cc1C#N", "Yes"],
  ["C[C@@H](CO)c1nnc(-c2cnn3ccc(N4CCC[C@@H]4c4cc(F)ccc4F)nc23)[nH]1", "No"],
  ["COc1cc2nc(-c3cnn4ccc(N5CCC[C@@H]5c5cc(F)ccc5F)nc34)[nH]c2cc1C#N", "No"],
  ["OC1(c2nnc(-c3cnn4ccc(N5CCC[C@@H]5c5cc(F)ccc5F)nc34)[nH]2)CCC1", "No"],
  ["Fc1ccc(F)c([C@H]2CCCN2c2ccn3ncc(-c4nnc(-c5ccc6c(c5)CCNC6)[nH]4)c3n2)c1", "No"]
]}

###

target: NTRK1-G595R (Homo sapiens, UniProt P04629, G595R)
Sequence (P04629 33-796 G595R): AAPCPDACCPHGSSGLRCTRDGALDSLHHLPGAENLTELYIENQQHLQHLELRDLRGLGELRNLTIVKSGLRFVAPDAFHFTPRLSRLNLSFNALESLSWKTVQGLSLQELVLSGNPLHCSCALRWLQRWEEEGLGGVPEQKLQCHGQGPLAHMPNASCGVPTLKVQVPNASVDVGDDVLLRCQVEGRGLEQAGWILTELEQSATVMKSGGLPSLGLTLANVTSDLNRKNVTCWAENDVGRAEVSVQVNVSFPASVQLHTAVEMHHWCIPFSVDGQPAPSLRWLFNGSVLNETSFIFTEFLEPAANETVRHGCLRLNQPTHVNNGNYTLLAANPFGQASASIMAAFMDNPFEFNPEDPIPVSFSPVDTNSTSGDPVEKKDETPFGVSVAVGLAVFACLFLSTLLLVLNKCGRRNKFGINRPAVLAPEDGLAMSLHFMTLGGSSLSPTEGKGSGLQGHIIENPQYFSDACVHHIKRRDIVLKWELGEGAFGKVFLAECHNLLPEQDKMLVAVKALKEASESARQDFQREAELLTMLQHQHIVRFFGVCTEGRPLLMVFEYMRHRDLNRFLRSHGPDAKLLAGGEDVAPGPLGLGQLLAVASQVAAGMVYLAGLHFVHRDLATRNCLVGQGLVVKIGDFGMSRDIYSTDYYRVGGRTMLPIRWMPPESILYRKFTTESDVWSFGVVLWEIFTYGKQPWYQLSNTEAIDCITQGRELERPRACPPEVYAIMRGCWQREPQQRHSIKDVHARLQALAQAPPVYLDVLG
method_notes: NTRK1-G595R cell proliferation assay (Table 13)
pIC50: −log10 of the molar value.
Entry flag: MET if pIC50 reaches 7; NOT MET if it does not.

{"columns": ["compound", "class_label"],
 "data": [
  ["COC(=O)c1cc2nc(-c3cnn4ccc(N5CCC[C@@H]5c5cc(F)ccc5F)nc34)[nH]c2cc1OC [Compound 155]", "MET"],
  ["COCCOc1cc2nc(-c3cnn4ccc(N5CCC[C@@H]5c5cc(F)ccc5F)nc34)[nH]c2cc1OCCOC [Compound 101]", "NOT MET"]
]}

###

// values below are reported pIC50
target: TrkA kinase (Homo sapiens, UniProt P04629)
Sequence (P04629 33-796): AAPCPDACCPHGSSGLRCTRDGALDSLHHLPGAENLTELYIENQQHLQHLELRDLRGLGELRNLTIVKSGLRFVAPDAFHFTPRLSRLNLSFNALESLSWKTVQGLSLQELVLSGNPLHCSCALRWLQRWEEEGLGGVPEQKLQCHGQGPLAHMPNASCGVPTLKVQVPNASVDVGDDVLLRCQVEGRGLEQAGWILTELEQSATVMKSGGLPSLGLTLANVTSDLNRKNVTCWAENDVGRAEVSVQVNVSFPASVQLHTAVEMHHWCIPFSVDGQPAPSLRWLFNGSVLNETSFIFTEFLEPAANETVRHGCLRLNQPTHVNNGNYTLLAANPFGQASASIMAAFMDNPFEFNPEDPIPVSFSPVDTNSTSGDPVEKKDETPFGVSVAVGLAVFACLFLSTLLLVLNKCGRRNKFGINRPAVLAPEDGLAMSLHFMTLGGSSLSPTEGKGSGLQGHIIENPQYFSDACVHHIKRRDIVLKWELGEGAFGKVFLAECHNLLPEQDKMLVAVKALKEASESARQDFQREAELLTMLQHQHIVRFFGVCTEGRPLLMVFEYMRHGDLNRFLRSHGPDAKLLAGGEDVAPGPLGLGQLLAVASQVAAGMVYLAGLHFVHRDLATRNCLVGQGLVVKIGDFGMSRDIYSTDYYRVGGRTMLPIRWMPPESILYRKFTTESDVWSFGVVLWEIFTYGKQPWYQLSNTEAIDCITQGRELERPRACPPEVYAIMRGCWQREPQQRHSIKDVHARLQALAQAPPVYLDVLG
method_notes: TrkA kinase assay (mobility shift assay)
Assay type: biochemical
protocol_conditions: class symbols; read-out: Trk A Kinase IC50
pIC50: −log10 of the molar value.

{"columns": ["compound", "pIC50"],
 "data": [
  ["Fc1ccc(F)c([C@H]2CCCN2c2ccn3ncc(-c4nnc(-c5ccc(Oc6ccccc6)cc5)[nH]4)c3n2)c1", "< 7.30"],
  ["N#Cc1cc2nc(-c3cnn4ccc(N5CCC[C@@H]5c5cc(F)ccc5F)nc34)[nH]c2cc1O", "≥ 8.00"],
  ["OCc1ccc2nc(-c3cnn4ccc(N5CCC[C@@H]5c5cc(F)ccc5F)nc34)oc2c1", "≥ 8.00"],
  ["Cc1cc2nc(-c3cnn4ccc(N5CCC[C@@H]5c5cc(F)ccc5F)nc34)oc2cc1OC(F)F", "7.30 to 8.00"],
  ["Fc1ccc(F)c([C@H]2CCCN2c2ccn3ncc(-c4nc5cc6nc7ccccc7nc6cc5[nH]4)c3n2)c1", "< 7.30"],
  ["Oc1cc2nc(-c3cnn4ccc(N5CCC[C@@H]5c5cc(F)ccc5F)nc34)[nH]c2cc1O", "≥ 8.00"],
  ["COC(=O)c1ccc2[nH]c(-c3cnn4ccc(N5CCC[C@@H]5c5cc(F)ccc5F)nc34)cc2c1", "≥ 8.00"],
  ["Fc1ccc(F)c([C@H]2CCCN2c2ccn3ncc(-c4nnc(C5CCN5)[nH]4)c3n2)c1 (stereo partly shown)", "< 7.30"],
  ["COc1cc2nc(-c3c(N)nn4ccc(N5CCC[C@@H]5c5cc(F)ccc5F)nc34)[nH]c2cc1C#N", "≥ 8.00"],
  ["Cc1ccnc2[nH]c(-c3cnn4ccc(N5CCC[C@@H]5c5cc(F)ccc5F)nc34)nc12", "7.30 to 8.00"],
  ["O=C(O)c1nnc(-c2cnn3ccc(N4CCC[C@@H]4c4cc(F)ccc4F)nc23)[nH]1", "< 7.30"],
  ["Fc1ccc(F)c([C@H]2CCCN2c2ccn3ncc(-c4nc5c(s4)CCNC5)c3n2)c1", "≥ 8.00"],
  ["COc1ccc2nc(-c3cnn4ccc(N5CCC[C@@H]5c5cc(F)ccc5F)nc34)[nH]c2c1F", "≥ 8.00"],
  ["COc1cc2[nH]c(-c3cnn4ccc(N5CCC[C@@H]5c5ccc(F)cc5)nc34)nc2cc1C#N", "< 7.30"],
  ["N#Cc1cc2nc(-c3cnn4ccc(N5CCC[C@@H]5c5cc(F)ccc5F)nc34)[nH]c2cc1C(N)=O", "≥ 8.00"],
  ["CCOc1cc2[nH]c(-c3cnn4ccc(N5CCC[C@@H]5c5cc(F)ccc5F)nc34)nc2cc1C#N", "≥ 8.00"],
  ["N#Cc1ccc2nc(-c3cnn4ccc(N5CCC[C@@H]5c5cc(F)ccc5F)nc34)[nH]c2c1", "≥ 8.00"],
  ["COc1cc2nc(-c3cnn4ccc(N5CCC[C@@H]5c5cc(F)ccc5F)nc34)nn2cc1OC", "7.30 to 8.00"],
  ["Fc1ccc(F)c([C@H]2CCCN2c2ccn3ncc(-c4nc5cc(O[C@@H]6CCOC6)c(O[C@H]6CCOC6)cc5[nH]4)c3n2)c1", "7.30 to 8.00"],
  ["COc1cc2nc(-c3cnn4ccc(N5CCC[C@@H]5c5cc(F)ccc5F)nc34)oc2cc1OC", "≥ 8.00"],
  ["C[C@](O)(c1nnc(-c2cnn3ccc(N4CCC[C@@H]4c4cc(F)ccc4F)nc23)[nH]1)C(F)(F)F", "7.30 to 8.00"],
  ["O[C@@H]1C[C@](O)(c2nnc(-c3cnn4ccc(N5CCC[C@@H]5c5cc(F)ccc5F)nc34)[nH]2)C[C@@H](O)[C@H]1O", "7.30 to 8.00"]
]}
